# Tested target: T1, PKC-ε (purified isoform) (Homo sapiens (Human), UniProt Q02156 1-737)
# T1 construct: also called PKC-epsilon; PKCepsilon
# T1 sequence: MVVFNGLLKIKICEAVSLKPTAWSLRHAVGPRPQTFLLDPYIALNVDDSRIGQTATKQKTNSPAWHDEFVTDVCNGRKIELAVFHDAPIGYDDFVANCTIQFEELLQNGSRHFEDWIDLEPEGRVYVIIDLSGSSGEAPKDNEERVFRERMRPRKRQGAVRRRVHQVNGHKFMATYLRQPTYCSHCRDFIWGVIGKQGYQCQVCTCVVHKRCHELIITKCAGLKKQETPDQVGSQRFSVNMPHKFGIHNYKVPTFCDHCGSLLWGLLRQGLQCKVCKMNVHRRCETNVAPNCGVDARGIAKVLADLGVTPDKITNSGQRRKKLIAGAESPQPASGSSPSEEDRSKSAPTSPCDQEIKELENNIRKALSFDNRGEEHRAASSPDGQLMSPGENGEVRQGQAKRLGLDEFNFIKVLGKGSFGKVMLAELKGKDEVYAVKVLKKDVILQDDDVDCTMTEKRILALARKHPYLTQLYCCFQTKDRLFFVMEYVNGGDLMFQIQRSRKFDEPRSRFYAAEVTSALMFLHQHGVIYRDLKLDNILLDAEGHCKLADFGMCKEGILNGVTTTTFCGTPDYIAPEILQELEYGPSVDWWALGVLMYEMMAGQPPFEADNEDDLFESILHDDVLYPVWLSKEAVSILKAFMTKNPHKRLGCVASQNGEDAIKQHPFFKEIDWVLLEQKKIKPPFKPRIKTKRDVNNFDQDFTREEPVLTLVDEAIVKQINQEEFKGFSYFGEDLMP
# Test description: competitive ELISA on purified PKC-ε vs anti-PKC-ε Ab; PRE 100 µM
Measured parameter: binding capacity (%)
Number only, in %; omit the unit.

Worked set:
| Binder | binding capacity (%) |
| --- | --- |
| Ac-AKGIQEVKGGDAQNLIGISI-NH2 (Synthetic peptide; also called peptide PRE 3) [PRE 3] | 31.5 |
| Ac-ISIGILQNADK-NH2 (Synthetic peptide (retro form of PRE 4); also called peptide PRE 7) [PRE 7] | 14 |
| Ac-RDAQNLI-NH2 (Synthetic peptide; also called peptide PRE 13; Ac-RDAQNLI-NH2) [PRE 13] | 0 |

Any idea what its binding capacity (%) is? The binder is Ac-KDAQNLI-NH2 (Synthetic peptide; also called peptide PRE 12; Ac-KDAQNLI-NH2) [PRE 12]
0.28

Any idea what its binding capacity (%) is? The binder is Ac-RDAQNLIGISI-NH2 (Synthetic peptide; also called peptide PRE 11) [PRE 11]
13
